Here the recorded T/C is given for each entry.
system: P388 leukemia ip, CD2F1 mice, survival T/C; assay: NCI In Vivo Anticancer Drug Screen. Data for tumor model P388 Leukemia (intraperitoneal) in CD2F1 (CDF1) mice; conditions: endpoint: median survival time; dose: 50.0 mg/kg/injection; schedule: Q01DX005 (ip); vehicle: Klucel (hydroxypropylcellulose) (HPC); higher = longer survival
Inconclusive results and toxic doses are left out. Peptide text beside a SMILES is read from it. * marks the point of attachment. Boc = CC(C)(C)OC(=O)*

Considering [O-][n+]1c2ccccc2nc2ccccc21 , its T/C with P388 leukemia ip, CD2F1 mice, survival T/C was recorded as 115 % of control

Further cases:
Observed T/C, P388 leukemia ip, CD2F1 mice, survival T/C, CCCCCC1OC1CC1OC1CCCCCCCC(=O)OC (stereo not drawn) : 96 % of control

Entry CCOC(=O)c1c(NC(=O)c2ccccc2)sc2c(=O)oc(-c3ccccc3)nc12 under P388 leukemia ip, CD2F1 mice, survival T/C had T/C of 97 % of control

T/C value, target or system P388 leukemia ip, CD2F1 mice, survival T/C, for O=c1c2cccnc2oc2c(Cl)cc(-c3nn[nH]n3)cc12 : 97 % of control

Lab entry: P388 leukemia ip, CD2F1 mice, survival T/C assay, molecule O=P(c1ccccc1)(c1ccccc1)c1ccccc1OCCCO , T/C = 99 % of control

// assay P388 leukemia ip, CD2F1 mice, survival T/C, entry CCCNc1nc(C)nc2[nH]cc(C)c12 , T/C value = 100 % of control

T/C for P388 leukemia ip, CD2F1 mice, survival T/C with input CC(NC(=O)OCc1ccccc1)C(=O)NC(Cc1c[nH]c2ccccc12)C(=O)O (stereo not drawn) equals 99 % of control

Reported T/C (P388 leukemia ip, CD2F1 mice, survival T/C) for entry Cc1nn(C(=S)S)c(C)c1N=Nc1ccc([N+](=O)[O-])cc1 is 104 % of control

Value (T/C, P388 leukemia ip, CD2F1 mice, survival T/C) for record CCOP(=S)(N/N=C(\C)c1ccc(C)s1)OCC = 104 % of control

Reported P388 leukemia ip, CD2F1 mice, survival T/C T/C for item COc1ccc(CCNC(=O)c2sc3ccccc3c2Cl)cc1OC was 88 % of control

Param item: Fc1nn2ccccc2c1C(F)(F)F ; param system: P388 leukemia ip, CD2F1 mice, survival T/C; output T/C: 99 % of control

Entry NC1(N)ON(c2ccc(C=O)cc2)C(c2ccc([N+](=O)[O-])cc2)S1 (stereo not drawn) under P388 leukemia ip, CD2F1 mice, survival T/C had T/C of 89 % of control

Measured T/C (P388 leukemia ip, CD2F1 mice, survival T/C), entry O=C1c2ccccc2C(=O)N1CN1C(=O)c2ccccc2S1(=O)=O : 93 % of control

P388 leukemia ip, CD2F1 mice, survival T/C assay, molecule COc1ccc(C2CC3CCC(C2O)N3C)cc1 (stereo not drawn) , recorded T/C = 103 % of control

The molecule COC(=O)C(Cc1ccccc1)NC(=O)C(Cc1ccccc1)NC(=O)OC(C)(C)C (stereo not drawn) (Boc-Phe-Phe-OMe; configuration not given here) on P388 leukemia ip, CD2F1 mice, survival T/C: T/C was 97 % of control

The recorded T/C with P388 leukemia ip, CD2F1 mice, survival T/C for O=S12(OC(C(F)(F)F)(C(F)(F)F)c3ccccc31)OC(C(F)(F)F)(C(F)(F)F)c1ccccc12 was 111 % of control

Given the molecule CC1(C)OC2(C)CCC1C1C2N1C(=O)C(c1ccccc1)c1ccccc1 (stereo not drawn) and test system P388 leukemia ip, CD2F1 mice, survival T/C, the measured T/C is 109 % of control

// molecule COC(=O)CC1C=CCC2C(=O)C=C(OC)C(=O)C12C (stereo not drawn) , assay P388 leukemia ip, CD2F1 mice, survival T/C, T/C value: 103 % of control

Entry COC(c1ccccc1)(c1ccccc1)c1ccc2ccc3ccccc3c2c1 , P388 leukemia ip, CD2F1 mice, survival T/C data, T/C value: 91 % of control

With P388 leukemia ip, CD2F1 mice, survival T/C as the test system, O=C(O)C(CO)Nc1ncnc2nc[nH]c12 (stereo not drawn) showed T/C of 106 % of control

Value sought: T/C, system P388 leukemia ip, CD2F1 mice, survival T/C, item CN(C)C1(C)CCC2C3CCC4=CC(=O)CCC4(C)C3CCC21C (stereo not drawn) . Result: 97 % of control

Form field T/C for item COc1ccc(NS(=O)(=O)c2ccc(NC(=O)NCCCl)cc2)nn1 on P388 leukemia ip, CD2F1 mice, survival T/C: 98 % of control

OCC(O)c1c(-c2ccccc2)c(-c2ccccc2)c2n1CCC2 (stereo not drawn) tested on P388 leukemia ip, CD2F1 mice, survival T/C gave T/C: 96 % of control

For the molecule CC1CCC(C(C)(C)c2ccccc2)CC1OC(=O)/C=C/CC(C)(C)CC=C1C2CCC1N(C(=O)OCC(Cl)(Cl)Cl)N2C(=O)OCC(Cl)(Cl)Cl (stereo not drawn) , the measured T/C on P388 leukemia ip, CD2F1 mice, survival T/C was 89 % of control

---

tested on: P388 leukemia ip, CD2F1 mice, survival T/C; experiment: NCI In Vivo Anticancer Drug Screen. Data for tumor model P388 Leukemia (intraperitoneal) in CD2F1 (CDF1) mice; settings: endpoint: median survival time; dose: 100.0 mg/kg/injection; schedule: Q01DX009 (ip); vehicle: water; higher = longer survival
Inconclusive results and toxic doses are left out.
measurement.kind: T/C

Per the records, this molecule ( Cc1ccc(S(=O)(=O)N/N=C/c2ccc(O)c(S(=O)(=O)O)c2)cc1 ) has T/C equal to 110 % of control

Briefly, T/C measured for COc1cc2c(cc1OC)-c1cc(C)c3cc(OC)c(OC)cc3[n+]1CC2 : 110 % of control

// T/C lookup, molecule = COc1cccc2c1C(=O)c1c(OC)c(C=O)cc(OC)c1C2=O , result: 100 % of control

Please examine the following record next.
Entry CCC[n+]1noc(N)n1 ; T/C = 106 % of control

---

tested on: P388 leukemia ip, CD2F1 mice, survival T/C; experiment: NCI In Vivo Anticancer Drug Screen. Data for tumor model P388 Leukemia (intraperitoneal) in CD2F1 (CDF1) mice; details: endpoint: median survival time; dose: 100.0 mg/kg/injection; schedule: Q01DX005 (ip); vehicle: saline with Tween-80; higher = longer survival
Toxic doses and inconclusive results are not listed.
Examples of molecules with documented T/C follow.

Worked examples, 3 molecules total:
According to the records, this molecule O=C1CN(Cc2cccc(Cl)c2)CC(=O)N2Cc3ccccc3CN12 displays T/C of 98 % of control

Lab book: T/C of C#CC(C)(C)Oc1ccc2c(=O)c(-c3ccc(OC)cc3)coc2c1 noted as 89 % of control

For reference, reported T/C for O=C1c2ccccc2C2CNC1(O)c1ccccc12 (configuration not stated) stands at 97 % of control

Then this molecule:
Record summary for Cc1ccccc1-n1c(=S)n(-c2ccccn2)c2nc3ccccc3nc1/c2=N/Nc1ccccn1 : reported T/C = 97 % of control

---

tested on: P388 leukemia ip, CD2F1 mice, survival T/C; test: NCI In Vivo Anticancer Drug Screen. Data for tumor model P388 Leukemia (intraperitoneal) in CD2F1 (CDF1) mice; details: endpoint: median survival time; dose: 60.0 mg/kg/injection; schedule: Q01DX005 (ip); vehicle: saline with Tween-80; higher = longer survival
Inconclusive results and toxic doses are left out.
measurement.kind: T/C

Below are worked cases with known answers.
Record summary for CCOC(=O)C1C2CCCCC21OC (centres undefined) : reported T/C = 106 % of control

For reference, reported T/C for COC(=O)C(O)(/C(=N\O)c1ccccc1)c1ccccc1 (centres undefined) stands at 97 % of control

So for CCOC(=O)[C@H]1C(CC)=NOC1C (some centres undefined) , the logged T/C turned out to be 102 % of control

GET /value?item= COc1cc(/C=C\Cc2cc3c(cc2OC(C)=O)OCO3)cc(OC)c1OC &field=T/C returns 91 % of control

The recorded T/C for COc1ccc2cc(C(=O)c3cc4ccc(OC)cc4oc3=O)c(=O)oc2c1 is 104 % of control

So for CC1(C)CC2(CC(C)(C)N1O)NC(=O)OC2=O , the logged T/C turned out to be 97 % of control

Value of T/C reported for the compound OC(CNc1c2ccccc2nc2ccccc12)COc1c2ccccc2nc2ccccc12 (centres undefined) is 95 % of control

Nc1nc(NCCCc2ccccc2)c(N=Nc2ccccc2)c(=O)[nH]1 has a reported T/C of 105 % of control

---
Lab note: measured T/C of COC(=O)C1C(=O)C(NC(=O)CCCCl)C(c2ccccc2)C(C(=O)OC)C1=O (centres undefined) was 101 % of control

COC(=O)N1c2ccccc2C(c2ccccc2)=NC1(C)C#N (centres undefined) yielded T/C of 98 % of control

Noted for COC(=O)c1nc(NC#N)[nH]c(=O)c1CCCCCc1cnc(NC#N)nc1 : its T/C reads 100 % of control

So, O=C(Nc1cccc([N+](=O)[O-])c1)OCc1ccc2c(c1)OCO2 ? Its T/C was 91 % of control

T/C reported for this compound COc1cccc2c1[C@@]1(C)C3C(=O)OC(C)(c4ccccc43)[C@@]1(C)C2=O (some centres undefined) : 108 % of control

// recorded T/C for O=C1C(O)=C(c2ccccc2)C12CSC1(CS2)C(=O)C(O)=C1c1ccccc1 (centres undefined) : 100 % of control
